- experimental protocol: inhibitors of DENV2 cytopathic effect, primary screen, cell-based, plate reader, single concentration (AID 651640);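 note: 0% = median of neutral control wells and 100% = median of positive control wells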
- test context: DENV2-infected cells, cytopathic effect rescue, at 9.99 µM
The campaign covered roughly 350,000 compounds. About 6,000 (1.7%) were called active. Roughly 5% stayed inconclusive and do not appear here. Cut-off read from the data, not from the text of the source: active = CPE inhibition above about 20% (passing the limit was not always enough); inconclusive = no clear call, values can overlap the other calls; tested in BHK-21 cells. The entries come from a sample that favours actives as a whole.
Output constraint: value belongs to label 1 (active), label 0 (inactive)

Here are 5 molecules together with their reported answers.
> print(dat)
                                   compound  answer.label
1  O=C(C[C@@H]1CC[C@H]2[C@@H](COC[C@@H](O)CN2C(=O)c2ccc3c(c2)OCO3)O1)NC1CCCC1       label 0
2  O=C(C[C@@H]1CC[C@@H]2[C@H](COC[C@H](O)CN2C(=O)Cc2ccccc2)O1)NC1CCC1       label 1
3  O=C(C[C@@H]1CC[C@@H]2[C@H](COC[C@H](O)CN2C(=O)c2cccnc2)O1)NC1Cc2ccccc2C1       label 0
4  CO[C@@H]1CN(C)C(=O)c2ccc(NS(=O)(=O)c3cccc(C)c3)cc2OC[C@@H](C)NC[C@H]1C       label 0
5  O=C(C[C@H]1CC[C@@H]2[C@H](COC[C@H](O)CN2Cc2ccccc2F)O1)NC1CCC1       label 0

Input line: Name the outcome recorded for O=C(C[C@H]1CC[C@@H]2[C@H](COC[C@H](O)CN2C(=O)c2ccc3c(c2)OCO3)O1)NC1CCC1 in the assay.
Output line: label 0

Input line: Name the outcome recorded for O=C(C[C@@H]1CC[C@@H]2[C@H](COC[C@H](O)CN2C(=O)c2ccc3c(c2)OCO3)O1)NC1CCCC1 in the assay.
Output line: label 0

---

- experimental protocol: inhibitors of DENV2 cytopathic effect, primary screen, cell-based, plate reader, single concentration (AID 651640);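 note: 0% = median of neutral control wells and 100% = median of positive control wells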
- test context: DENV2-infected cells, cytopathic effect rescue, at 9.99 µM
In all, about 350,000 compounds went through this assay and about 6,000 (1.7%) were called active. Another 5% or so got no clear call; they are omitted. No stated cut-off is given here; in the data, active means CPE inhibition above about 20% (passing the limit was not always enough); inconclusive means no clear call, values can overlap the other calls; tested in BHK-21 cells. Many of the other results were omitted from the sample, so actives are more common in it than they were.
Output constraint: value belongs to y = active, n = inactive

Input line: Name the outcome recorded for COCc1cn(CC[C@@H]2CC[C@@H](NC(=O)Cc3cccnc3)[C@@H](CO)O2)nn1 in the assay.
Output line: n

Input line: Name the outcome recorded for COc1ccc(CNC(=O)C[C@H]2C[C@H](C(=O)N3CCOCC3)[C@@]3(CCC4CCCC4)c4[nH]c5ccc(Cl)cc5c4CCN3C2=O)cc1OC in the assay.
Output line: n

Input line: Name the outcome recorded for CCC(=O)Nc1ccc2c(c1)OC[C@H](C)N(C(=O)c1ccccc1F)C[C@@H](C)[C@H](OC)CN(C)C2=O in the assay.
Output line: n

---

- experimental protocol: inhibitors of DENV2 cytopathic effect, primary screen, cell-based, plate reader, single concentration (AID 651640);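 note: 0% = median of neutral control wells and 100% = median of positive control wells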
- test context: DENV2-infected cells, cytopathic effect rescue, at 9.99 µM, stronger effect = higher value
Hit rate of the full screen: of about 350,000 compounds, about 6,000 (1.7%) were called active. Another 5% or so got no clear call; they are omitted. This is one part of a sample in which actives are shown more often than they occur.
metric: CPE inhibition (%)
API: value field is a number in %; no unit string.

> print(dat)
                                   compound  measured.value
1  CC(=O)NC(Cc1c[nH]c2ccccc12)C(=O)NCCc1ccccc1 (configuration not stated)              -3
2  Cc1ccc(S(=O)(=O)N2C[C@@H](O)COC[C@@H]3O[C@@H](CC(=O)N[C@H]4CCN(Cc5ccccc5)C4)CC[C@H]32)cc1           -6.36
3  Cc1ccc2c(c1)NC(=O)[C@@]1(C)[C@@H](c3ccccc3)[C@H]3COc4ccc(Cl)cc4[C@@H]3N1C2=O            82.7
4  COc1cccc(NC(=O)CN(C)C(=O)Cc2ccc(Cl)cc2Cl)c1           -4.12
5  COc1cccc(S(=O)(=O)N[C@H]2CC[C@@H](CC(=O)NCc3ccc(F)cc3)O[C@@H]2CO)c1            2.23
6  COc1ccc(NC(=O)Nc2cccc3c2O[C@H](CN(C)S(=O)(=O)c2ccc(F)cc2)[C@H](C)CN([C@H](C)CO)C3=O)cc1           -3.75
7  C[C@@H]1CN([C@H](C)CO)C(=O)c2cc(NC(=O)Nc3ccccc3)ccc2O[C@@H](C)CCCCO[C@@H]1CN(C)Cc1ccncc1           -2.85
8  COc1ccc2c3c(n(C)c2c1)[C@@H](CO)N(C(C)=O)CC31CCN(C(=O)C2CC2)CC1           -6.89

Input line: Report measured CPE inhibition; entry is O=C(C[C@@H]1CC[C@H](NS(=O)(=O)c2ccc(F)cc2)[C@@H](CO)O1)NCc1ccccc1F
Output line: 1.66

Input line: Report measured CPE inhibition; entry is C[C@H]1CCCCO[C@H](CN(C)CC2CC2)[C@@H](C)CN([C@@H](C)CO)C(=O)c2cc(NS(C)(=O)=O)ccc2O1
Output line: 2.25

Input line: Report measured CPE inhibition; entry is C[C@@H]1CCCCO[C@@H](CN(C)C(=O)Nc2ccc(F)cc2)[C@H](C)CN([C@@H](C)CO)C(=O)c2cc(NS(C)(=O)=O)ccc2O1
Output line: -6.59
